Each recorded value in this set is attributed to patent US11377438B2.

# tgt: human Nav1.8 (Homo sapiens (Human), UniProt Q9Y5Y9)
# Sequence (Q9Y5Y9 whole entry): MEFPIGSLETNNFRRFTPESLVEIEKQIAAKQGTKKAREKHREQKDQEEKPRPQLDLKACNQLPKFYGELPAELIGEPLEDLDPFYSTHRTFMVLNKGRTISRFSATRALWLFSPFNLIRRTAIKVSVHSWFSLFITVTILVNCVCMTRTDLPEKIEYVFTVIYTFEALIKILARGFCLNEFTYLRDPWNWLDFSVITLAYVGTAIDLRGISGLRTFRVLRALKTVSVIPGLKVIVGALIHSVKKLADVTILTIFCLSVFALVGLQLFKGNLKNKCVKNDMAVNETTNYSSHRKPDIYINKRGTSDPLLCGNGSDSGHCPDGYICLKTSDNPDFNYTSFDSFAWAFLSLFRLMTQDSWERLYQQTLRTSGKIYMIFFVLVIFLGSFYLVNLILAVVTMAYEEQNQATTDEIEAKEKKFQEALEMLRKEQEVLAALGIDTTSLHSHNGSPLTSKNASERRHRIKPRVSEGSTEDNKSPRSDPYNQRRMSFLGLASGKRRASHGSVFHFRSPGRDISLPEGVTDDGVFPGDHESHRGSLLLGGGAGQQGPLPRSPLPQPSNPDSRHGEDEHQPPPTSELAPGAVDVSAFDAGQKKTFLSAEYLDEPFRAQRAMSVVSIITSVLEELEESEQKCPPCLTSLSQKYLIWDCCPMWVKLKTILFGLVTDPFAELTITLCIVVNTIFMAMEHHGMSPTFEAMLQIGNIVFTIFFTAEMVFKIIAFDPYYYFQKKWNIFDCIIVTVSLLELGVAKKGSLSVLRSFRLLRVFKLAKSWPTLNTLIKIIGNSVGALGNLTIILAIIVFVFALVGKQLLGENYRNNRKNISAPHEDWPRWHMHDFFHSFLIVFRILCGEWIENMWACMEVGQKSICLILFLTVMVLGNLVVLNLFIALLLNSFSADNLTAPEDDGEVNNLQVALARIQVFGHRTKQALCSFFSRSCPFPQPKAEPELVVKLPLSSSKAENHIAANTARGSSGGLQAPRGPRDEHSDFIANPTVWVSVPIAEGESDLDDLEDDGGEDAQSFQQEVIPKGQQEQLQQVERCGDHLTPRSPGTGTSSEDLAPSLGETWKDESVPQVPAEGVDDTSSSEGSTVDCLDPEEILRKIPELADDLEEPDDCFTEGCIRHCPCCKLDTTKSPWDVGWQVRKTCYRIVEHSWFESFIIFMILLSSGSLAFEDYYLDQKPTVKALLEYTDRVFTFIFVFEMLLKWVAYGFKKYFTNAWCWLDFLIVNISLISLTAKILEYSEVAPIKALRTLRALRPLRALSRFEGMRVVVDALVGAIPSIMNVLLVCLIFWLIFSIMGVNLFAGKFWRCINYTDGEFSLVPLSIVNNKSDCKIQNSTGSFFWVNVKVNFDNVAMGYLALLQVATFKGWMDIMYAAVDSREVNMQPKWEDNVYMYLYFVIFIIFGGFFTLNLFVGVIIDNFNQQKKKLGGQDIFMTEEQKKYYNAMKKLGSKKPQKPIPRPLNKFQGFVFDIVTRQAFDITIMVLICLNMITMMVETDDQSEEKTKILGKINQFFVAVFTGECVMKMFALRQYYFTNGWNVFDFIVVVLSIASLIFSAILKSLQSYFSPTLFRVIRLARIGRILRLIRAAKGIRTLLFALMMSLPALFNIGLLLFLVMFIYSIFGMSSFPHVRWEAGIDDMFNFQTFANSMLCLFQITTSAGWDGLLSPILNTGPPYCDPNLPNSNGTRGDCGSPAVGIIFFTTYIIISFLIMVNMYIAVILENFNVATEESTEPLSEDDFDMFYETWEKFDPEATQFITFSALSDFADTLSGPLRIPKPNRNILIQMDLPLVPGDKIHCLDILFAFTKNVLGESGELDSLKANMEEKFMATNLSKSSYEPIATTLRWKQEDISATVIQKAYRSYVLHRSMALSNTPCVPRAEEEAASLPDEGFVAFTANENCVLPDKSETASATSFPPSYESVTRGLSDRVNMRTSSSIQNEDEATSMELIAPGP
# assay_procedure: Nav1.8 Qube automated patch-clamp assay
# Assay type: cell-based
# conditions_used: human Nav1.8 stably expressed in HEK 293 cells, whole-cell voltage clamp, room temperature; read-out: IC50 (nM) in the Nav 1.8 Qube Assay
measurement_name: IC50 (nM)

Take a look at these entries with their results.
{"columns": ["compound", "measurement_name", "numeric_result"],
 "data": [
  ["C[C@@H]1CN(c2nc(C3CCC3)c(Cl)cc2C(=O)Nc2ccnc(S(N)(=O)=O)c2)C[C@H](C)C1(F)F", "IC50", 6.9],
  ["NS(=O)(=O)c1cc(NC(=O)c2cc(Cl)c(C3CC3)nc2N2CCCC(F)(F)CC2)ccn1", "IC50", 4.5],
  ["C[C@@H]1CN(c2nc(C3CCC3)ccc2C(=O)Nc2ccnc(S(N)(=O)=O)c2)C[C@H](C)C1(F)F", "IC50", 13],
  ["NS(=O)(=O)c1cc(NC(=O)c2cc(Cl)c(C3CCC3)nc2N2CCCC(F)(F)CC2)ccn1", "IC50", 2.6],
  ["C[C@@H]1CN(c2ncc(C(F)(F)F)cc2C(=O)Nc2ccnc(S(C)(=O)=O)c2)C[C@H](C)C1(F)F", "IC50", 22]
]}

A. NS(=O)(=O)c1cc(NC(=O)c2ccc(C3CC3)nc2N2CCCC(F)(F)CC2)ccn1
B. Cc1nc(N2CCCC(F)(F)CC2)c(C(=O)Nc2ccnc(S(N)(=O)=O)c2)cc1Cl
## Task Hi there, can you help? I need to know whether A or B has lower measured IC50. Field: selected label. Fill in the label of the entry you choose.
## Result B

====

# tgt: human Nav1.8 (Homo sapiens (Human), UniProt Q9Y5Y9)
# assay_procedure: Nav1.8 Qube automated patch-clamp assay
# Format: cell-based
# conditions_used: human Nav1.8 stably expressed in HEK 293 cells, whole-cell voltage clamp, room temperature; read-out: IC50 (nM) in the Nav 1.8 Qube Assay
measurement_name: IC50 (nM)

{"columns": ["molecule", "measurement_name", "units_of_measure", "numeric_result"],
 "data": [
  ["CC1CN(c2ncc(C(F)(F)F)cc2C(=O)Nc2ccnc(S(N)(=O)=O)c2)CCC(C(F)(F)F)O1 (single isomer, unassigned) [Example 121]", "IC50", "nM", 58],
  ["CC[C@H]1CN(c2ncc(C(F)(F)F)cc2C(=O)Nc2ccnc(S(N)(=O)=O)c2)C[C@H](C(F)(F)F)O1 (single isomer, unassigned) [Example 134]", "IC50", "nM", 155],
  ["C[C@H]1CN(c2nc(C3CCC3)c(Cl)cc2C(=O)Nc2ccnc(S(N)(=O)=O)c2)C[C@H](C(F)(F)F)O1 (single isomer, unassigned) [Example 161]", "IC50", "nM", 63]
]}
